// data source = patent US20240199745A1

Measured H1650 CTG-3D EC50 of individual entries
tested-target: EGFR on EGFR positive non-small cell lung cancer cells NCI-H1650 (UniProt P00533 25-1210)
experimental-protocol: cell-based or functional assay
observed-property: H1650 CTG-3D EC50 (µg/mL)

[[record]]
binder = "AbK-ZT (antibody, human IgG1, kappa, V domains shown, synthon ZT on reduced interchain cysteines; average DAR 1.3 per ADC) VH: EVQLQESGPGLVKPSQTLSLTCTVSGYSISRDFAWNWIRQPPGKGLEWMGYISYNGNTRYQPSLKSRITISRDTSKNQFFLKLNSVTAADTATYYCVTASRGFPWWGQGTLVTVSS VL: DIQMTQSPSSMSVSVGDRVTITCHSSQDITYNVGWLQQKPGKSFKGLIYHGSNLDHGVPSRFSGSGSGTDYTLTISSLQPEDFATYYCVQYDDFPWTFGGGTKLEIKR"
number = 0.05

[[record]]
binder = "AbB-ZT (antibody, human IgG1, kappa, V domains shown, synthon ZT on reduced interchain cysteines; average DAR 1.4 per ADC) VH: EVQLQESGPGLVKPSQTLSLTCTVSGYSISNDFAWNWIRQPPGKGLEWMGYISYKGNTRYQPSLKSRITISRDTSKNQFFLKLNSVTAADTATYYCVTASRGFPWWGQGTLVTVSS VL: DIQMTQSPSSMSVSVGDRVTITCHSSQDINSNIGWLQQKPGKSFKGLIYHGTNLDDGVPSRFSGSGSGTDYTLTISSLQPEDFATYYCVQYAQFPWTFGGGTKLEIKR"
number = 0.26

[[record]]
binder = "AbA-LB (antibody, human IgG1, kappa, V domains shown, synthon LB on reduced interchain cysteines; average DAR 2.4 per ADC) VH: EVQLQESGPGLVKPSQTLSLTCTVSGYSISRDFAWNWIRQPPGKGLEWMGYISYNGNTRYQPSLKSRITISRDTSKNQFFLKLNSVTAADTATYYCVTASRGFPYWGQGTLVTVSS VL: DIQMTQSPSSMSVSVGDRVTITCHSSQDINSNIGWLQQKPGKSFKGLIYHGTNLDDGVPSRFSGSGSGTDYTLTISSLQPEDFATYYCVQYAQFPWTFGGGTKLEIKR"
number = 4.05

[[record]]
binder = "AbB-XW (antibody, human IgG1, kappa, V domains shown, synthon XW on reduced interchain cysteines; average DAR 3.2 per ADC) VH: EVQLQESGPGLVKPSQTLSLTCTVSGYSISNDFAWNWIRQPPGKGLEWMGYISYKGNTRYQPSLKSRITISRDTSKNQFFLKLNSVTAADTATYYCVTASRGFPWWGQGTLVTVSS VL: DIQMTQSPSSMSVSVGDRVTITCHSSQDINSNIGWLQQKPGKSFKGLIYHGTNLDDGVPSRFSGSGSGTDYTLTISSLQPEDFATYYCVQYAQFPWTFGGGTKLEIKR"
number = 6.92

[[record]]
binder = "AbK-AAD (antibody, human IgG1, kappa, V domains shown, synthon AAD on reduced interchain cysteines; average DAR 2.8 per ADC) VH: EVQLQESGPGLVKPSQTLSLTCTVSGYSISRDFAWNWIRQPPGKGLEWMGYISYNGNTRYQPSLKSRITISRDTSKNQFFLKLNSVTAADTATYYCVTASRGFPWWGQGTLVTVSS VL: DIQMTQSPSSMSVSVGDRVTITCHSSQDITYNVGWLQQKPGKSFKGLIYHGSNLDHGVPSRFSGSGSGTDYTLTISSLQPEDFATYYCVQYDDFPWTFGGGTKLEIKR"
number = 0.01

[[record]]
binder = "AbK-TV (antibody, human IgG1, kappa, V domains shown, synthon TV on reduced interchain cysteines; average DAR 2.4 per ADC) VH: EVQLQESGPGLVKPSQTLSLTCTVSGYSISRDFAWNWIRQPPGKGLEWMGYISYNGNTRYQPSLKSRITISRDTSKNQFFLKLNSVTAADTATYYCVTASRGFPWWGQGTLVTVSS VL: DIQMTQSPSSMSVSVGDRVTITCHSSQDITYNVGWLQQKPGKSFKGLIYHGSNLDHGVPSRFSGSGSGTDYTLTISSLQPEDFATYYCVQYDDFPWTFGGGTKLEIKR"
number = 0.05

[[record]]
binder = "AbA-SR (antibody, human IgG1, kappa, V domains shown, synthon SR on reduced interchain cysteines; average DAR 2.3 per ADC) VH: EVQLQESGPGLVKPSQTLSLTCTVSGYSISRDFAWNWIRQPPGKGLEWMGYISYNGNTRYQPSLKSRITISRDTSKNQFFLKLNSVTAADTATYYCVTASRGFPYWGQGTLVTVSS VL: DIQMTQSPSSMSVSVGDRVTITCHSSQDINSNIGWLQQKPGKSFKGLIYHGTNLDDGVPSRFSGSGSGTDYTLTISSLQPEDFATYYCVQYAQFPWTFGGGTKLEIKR"
number = 2.12

[[record]]
binder = "AbK-ZZ (antibody, human IgG1, kappa, V domains shown, synthon ZZ on reduced interchain cysteines; average DAR 1.9 per ADC) VH: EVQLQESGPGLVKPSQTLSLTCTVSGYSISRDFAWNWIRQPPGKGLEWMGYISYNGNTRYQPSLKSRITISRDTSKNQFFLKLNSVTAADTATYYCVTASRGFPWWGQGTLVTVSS VL: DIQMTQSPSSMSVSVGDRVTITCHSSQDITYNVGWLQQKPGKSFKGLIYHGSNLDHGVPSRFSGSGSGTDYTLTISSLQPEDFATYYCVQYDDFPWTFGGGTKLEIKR"
number = 0.03

[[record]]
binder = "AbA-YG (antibody, human IgG1, kappa, V domains shown, synthon YG on reduced interchain cysteines; average DAR 1.9 per ADC) VH: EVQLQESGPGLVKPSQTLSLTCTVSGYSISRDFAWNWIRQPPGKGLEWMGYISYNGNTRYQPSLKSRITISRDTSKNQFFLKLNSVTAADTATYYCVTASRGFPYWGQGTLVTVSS VL: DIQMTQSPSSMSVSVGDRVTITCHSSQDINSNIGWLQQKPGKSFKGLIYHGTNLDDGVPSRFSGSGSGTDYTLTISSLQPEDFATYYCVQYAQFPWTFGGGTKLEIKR"
number = 3.8

[[record]]
binder = "AbG-AAD (antibody, human IgG1, kappa, V domains shown, synthon AAD on reduced interchain cysteines; average DAR 3.4 per ADC) VH: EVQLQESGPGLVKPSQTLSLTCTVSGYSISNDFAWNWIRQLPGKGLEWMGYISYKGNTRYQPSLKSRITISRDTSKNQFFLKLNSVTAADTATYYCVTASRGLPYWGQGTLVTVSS VL: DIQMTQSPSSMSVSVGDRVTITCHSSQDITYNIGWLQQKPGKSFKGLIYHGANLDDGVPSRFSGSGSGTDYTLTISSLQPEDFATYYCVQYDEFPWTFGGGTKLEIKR"
number = 0.02

